Tested on: HT29 colon
Assay Info: NCI-60 one-dose screen, 48 h (100 = growth as untreated, 0 = no growth, -100 = all killed)
Condition Notes: 10 µM unless noted
Compounds without any hit were thinned out: in the full panel of roughly 83,000, 20% have a hit.
Response field label: string, one of satisfied (growth strictly below 80%) or not satisfied.

Input line: Consider `O=C(Nc1nc(-c2ccccc2)cc(-c2ccc(Cl)cc2)n1)c1ccncc1` . Does its growth lie strictly below 80%?
Output line: not satisfied

Input line: Consider `COc1cc(NCCCCCN=C(N)NC(N)=NC(C)C)c2ncccc2c1` . Does its growth lie strictly below 80%?
Output line: satisfied

Input line: Consider CCOC(=O)C(CC)n1c(=O)c2cc(OC)c(OC)cc2c2cnc3[nH]ccc3c21 (stereo not given) . Does its growth lie strictly below 80%?
Output line: satisfied

Input line: Consider `CCOC(=O)c1nc(Nc2cc(C)[nH]n2)c2ccccc2n1` . Does its growth lie strictly below 80%?
Output line: not satisfied

Input line: Consider `NC1=CC(=O)C(=O)c2ccccc21` . Does its growth lie strictly below 80%?
Output line: not satisfied

Input line: Consider `CCOC(=O)c1c2c(n3ccc(NC(=O)CCN4CCCCC4)cc13)C(=O)c1ncccc1C2=O` . Does its growth lie strictly below 80%?
Output line: satisfied

Input line: Consider `CC(C)c1c(C(=O)Nc2ccccc2)c(-c2ccccc2)c(-c2ccc(F)cc2)n1CC[C@@H]1CC=CC(=O)O1` . Does its growth lie strictly below 80%?
Output line: satisfied

Input line: Consider CCOC(=O)C(Cc1cc(I)c(O)c(I)c1)NC(=O)c1ccccc1 (stereo not given) . Does its growth lie strictly below 80%?
Output line: not satisfied

Input line: Consider `Nc1cc(-c2nc3sccn3c2-c2ccnc(NCCCNS(=O)(=O)c3ccc(F)cc3)n2)ccc1F` . Does its growth lie strictly below 80%?
Output line: satisfied

Input line: Consider O=C1C2CC=CCC2C(=O)N1CNc1ccc(Cl)cc1 (stereo not given) . Does its growth lie strictly below 80%?
Output line: not satisfied

----------
Test system: MALME-3M melanoma
Assay Info: NCI-60 one-dose screen, 48 h
Condition Notes: 10 µM unless noted
This is part of a sample that, as a whole, favours compounds with a hit. Of some 83,000 tested, about 20% had one in any assay. Activity calls are given as the source filed them. How the source made its calls: active means growth percent below 10; inactive means the rest.
Outcome (select one): active, inactive

Input line: Test call, this compound: `O=C(N/N=C/c1ccc(O)cc1O)c1cccnc1`
Output line: inactive

Input line: Test call, this compound: `O=C(CN1CCN(c2cc3c(cc2F)c(=O)c(C(=O)O)cn3C2CC2)CC1)Nc1nc(-c2ccc(Cl)cc2)cs1`
Output line: inactive

Input line: Test call, this compound: `CCCCNP1(NCCCC)=NP(NCCCC)(NCCCC)=NP(NCCCC)(NCCCC)=NP(NCCCC)(NCCCC)=N1`
Output line: active

Input line: Test call, this compound: `NC1=CSC2=N/C(=C\c3ccc(Cl)cc3)C(=O)N12`
Output line: inactive

Input line: Test call, this compound: `NCc1cn2cc(Cl)sc2n1`
Output line: inactive

Input line: Test call, this compound: `COc1ccc(-c2cnoc2-c2cc(OC)c3c(c2)OCCO3)cc1`
Output line: inactive

Input line: Test call, this compound: `Cc1cc(OCc2ccc(C(F)(F)F)cc2)c2c(c1)C(=O)C=C(NCCN1CCCC1)C2=O`
Output line: active

Input line: Test call, this compound: `Cl/C(=N\Nc1ccccc1)c1ccccc1`
Output line: inactive

Input line: Test call, this compound: Cn1c(=O)c2[nH]c(C(O)C(O)C(O)C(O)CO)nc2n(C)c1=O (configuration not stated)
Output line: inactive

Input line: Test call, this compound: `O=C(COCc1c(-c2ccccc2)no[n+]1[O-])Nc1ccc(C(=O)/C=C/c2ccc3c(c2)OCO3)cc1`
Output line: inactive

Input line: Test call, this compound: `CCN(CC)CCCNc1cc(OC)cc2nc3cc(Cl)ccc3nc12`
Output line: active

Input line: Test call, this compound: `COc1cc(/C=N/N(C)C)ccc1O`
Output line: inactive

Input line: Test call, this compound: `COc1ccc(S(=O)(=O)NCCNc2nccc(-c3c(-c4cccc([N+](=O)[O-])c4)nc4sccn34)n2)cc1`
Output line: inactive

Input line: Test call, this compound: `COc1ccc(S(=O)(=O)NCCNc2nccc(-c3c(-c4cccc(N)c4)nc4sccn34)n2)cc1`
Output line: inactive

Input line: Test call, this compound: Cc1ccc(C2CC3c4ccccc4C2C2CCCCN32)cc1 (configuration not stated)
Output line: inactive

Input line: Test call, this compound: `Brc1cccc(-c2nc(-c3ccc4c(c3)OCCO4)co2)c1`
Output line: inactive

Input line: Test call, this compound: `C#Cc1nc2ccccc2c(=O)[nH]1`
Output line: active

Input line: Test call, this compound: `NCCN1CCN(c2nccc(-c3ccc4ccccc4c3)n2)CC1`
Output line: inactive

Input line: Test call, this compound: OCC1C2C=CC(C2)C1CO (configuration not stated)
Output line: inactive

Input line: Test call, this compound: CCOC(=O)C(Cc1cc(I)c(O)c(I)c1)NC(=O)c1ccccc1 (configuration not stated)
Output line: inactive

Input line: Test call, this compound: COc1cc(C2CC(=O)c3c(C)nn(-c4nc5ccccc5[nH]4)c3C2)cc(OC)c1OC (configuration not stated)
Output line: inactive

Input line: Test call, this compound: `COc1ccc(-c2c(C)noc2-c2ccc(O)cc2O)cc1`
Output line: inactive

Input line: Test call, this compound: CCC(C)[C@@H]1NC(=O)[C@@H]2CCCN2C(=O)[C@H](Cc2ccccc2)NC(=O)[C@@H]2CCCN2C(=O)[C@H](Cc2ccccc2)NC(=O)[C@@H]2CCCN2C(=O)[C@H](Cc2ccccc2)NC1=O (some centres not stated)
Output line: inactive

Input line: Test call, this compound: `COc1cc2c(cc1O)CCc1cc(O)cc(OC)c1-2`
Output line: inactive

Input line: Test call, this compound: `C/C(=C(/c1ccc(O)cc1)c1ccc(Cl)cc1)c1ccccc1`
Output line: active

Input line: Test call, this compound: `Cc1ccc2c(c1)C(=O)/C(=C/c1ccc(OCC(=O)c3ccccc3)cc1)O2`
Output line: inactive

Input line: Test call, this compound: `COc1cccc(-c2cn3c(ccc4ccccc43)n2)c1`
Output line: inactive

Input line: Test call, this compound: COc1ccc(C2CC(=O)Nc3c2c(C)nn3-c2nc3ccccc3[nH]2)cc1 (configuration not stated)
Output line: inactive

Input line: Test call, this compound: `Oc1cc(O)c2c(=S)cc(-c3ccc(Cl)cc3)oc2c1`
Output line: inactive

Input line: Test call, this compound: `CCN(CC)CCC(=O)c1ccc(OC)c2ccccc12`
Output line: inactive

Input line: Test call, this compound: `O=c1[nH]c(-c2ccccn2)nc2sc3c(c12)CCCCC3`
Output line: inactive

Input line: Test call, this compound: `CCc1ccc(C(c2ccc(CC)cc2)C(Cl)(Cl)CCl)cc1`
Output line: inactive

Input line: Test call, this compound: `CNc1nc(C)c(-c2nc(Nc3cccc(S(N)(=O)=O)c3)ncc2F)s1`
Output line: active

Input line: Test call, this compound: `CC(C)Oc1nc2c(c(=O)n(C)c(=O)n2C)n1C`
Output line: inactive

Input line: Test call, this compound: `O=S(=O)(NCCCNc1cc(-c2cn(-c3ccccc3)nc2-c2ccccc2)ccn1)c1ccc(C(F)(F)F)cc1`
Output line: inactive

Input line: Test call, this compound: `CC/C=C\C[C@H](O)C/C=C1/C(=O)C=C[C@@H]1C/C=C\CCCC(=O)NC`
Output line: active

Input line: Test call, this compound: `CC1=C(NCCN2CCCC2)C(=O)c2c(OCc3ccc(C(F)(F)F)cc3)cccc2C1=O`
Output line: inactive

Input line: Test call, this compound: `Cc1ccc2c(c1)n([O-])c1cc(Cl)ccc1[n+]2=O`
Output line: inactive

Input line: Test call, this compound: `CN1CCN(Cc2ccc(NC(=O)c3cncc(C#Cc4cncc5nccnc45)c3)cc2C(F)(F)F)CC1`
Output line: active

Input line: Test call, this compound: `CC/C=C\C[C@H](F)C/C=C1/C(=O)C=C[C@@H]1C/C=C\CCCC(=O)OC`
Output line: active

Input line: Test call, this compound: `COc1ccc(/C=C2\N=C3Sc4cc(Cl)ccc4C(=O)N3C2=O)cc1`
Output line: inactive

Input line: Test call, this compound: `O=C1Nc2c(ccc(Cl)c2Cl)/C1=C/c1cc(Br)c(O)c(Br)c1`
Output line: inactive
